- targetDesc: T1, BMP-12 (UniProt Q7Z4P5 322-450, limits assumed)
- T1 construct: also called BMP12/GDF7
- T1 sequence (looked up): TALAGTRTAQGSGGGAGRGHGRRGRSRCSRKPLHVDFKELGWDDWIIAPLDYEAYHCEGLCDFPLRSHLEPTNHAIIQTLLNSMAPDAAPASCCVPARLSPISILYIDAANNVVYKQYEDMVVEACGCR
- testDescription: peptide resin, filter plate; load 5: 25 mM HEPES pH 7.0
No end group written: not given here.
Measured 100 mM HAc elution conc, listed per entry for reference.
Reply with the number and its unit after it.

Example entries and their recorded answers appear below.
- binder: "Ac-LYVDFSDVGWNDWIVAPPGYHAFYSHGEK [BMP2 Full peptide 747]"
  reading: "0.255 mg/mL"
- binder: "Ac-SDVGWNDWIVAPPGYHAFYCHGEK [BMP2 N-trun peptide 750]"
  reading: "0.187 mg/mL"
- binder: "Ac-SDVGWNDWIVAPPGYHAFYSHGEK [BMP2 N-trun 1S peptide 751]"
  reading: "0.254 mg/mL"

Continue with the binder presented below.
Sample Ac-VAPPGYHAFYSHGEK [BMP2 N-trunc_2 peptide 745] ; 100 mM HAc elution conc observed: 0.077 mg/mL
